// provenance: patent US20240270821A1

- assay.system: human GcgR (Homo sapiens)
- Sequence (P47871 26-477): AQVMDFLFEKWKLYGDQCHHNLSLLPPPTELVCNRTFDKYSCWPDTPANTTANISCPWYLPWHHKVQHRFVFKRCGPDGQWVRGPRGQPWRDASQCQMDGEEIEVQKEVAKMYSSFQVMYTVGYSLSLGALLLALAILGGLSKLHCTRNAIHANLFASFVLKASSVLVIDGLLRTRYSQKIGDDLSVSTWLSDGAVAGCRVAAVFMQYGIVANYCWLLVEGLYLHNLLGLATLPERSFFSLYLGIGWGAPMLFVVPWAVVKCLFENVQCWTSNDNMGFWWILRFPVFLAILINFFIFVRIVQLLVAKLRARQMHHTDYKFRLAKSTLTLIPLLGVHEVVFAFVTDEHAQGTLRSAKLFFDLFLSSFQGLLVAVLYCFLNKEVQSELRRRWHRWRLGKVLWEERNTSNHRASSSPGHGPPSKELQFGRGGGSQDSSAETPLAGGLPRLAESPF
- assay.remarks: Functional cAMP activity in the presence of 1% HSA
- Format: cell-based
- test.settings: HEK-293 clonal cells expressing hGcgR; in the presence of 1% HSA; geometric mean of relative EC50; read-out: cAMP Rel EC50, hGcgR
Starred links: 1 amine or outer side, 2 acyl side, 3 side chain; linkers in the order of their positions; H or OH if unused. Non-standard residues stand in square brackets, D forms with d. Groups on a side chain read outwards from the residue. *: point of attachment. C20 diacid = O=C(O)CCCCCCCCCCCCCCCCCCC(=O)*; C18 diacid = O=C(O)CCCCCCCCCCCCCCCCC(=O)*; αMePhe(2-F) = C[C@](N)(Cc1ccccc1F)C(=O)O; γGlu = O=C(O)[C@H](CCC(=O)[*:2])N[*:1]; αMeL = CC(C)C[C@](C)(N)C(=O)O; AEEA = NCCOCCOCC(=O)O; Aib = CC(C)(N)C(=O)O
quantity.name: EC50 (nM)

substance="H-Y[Aib]QGT[αMePhe(2-F)]TSDYSK[αMeL]LDKK([AEEA-γGlu-C18 diacid])AQ[Aib]QFIEYLEEGGPSSGEPPPSEG-NH2 [Example 292]" measured=583
substance="H-Y[Aib]QGT[αMePhe(2-F)]TSDYSI[αMeL]LDKK([AEEA-AEEA-γGlu-C20 diacid])AA[Aib]AFIEYLIETGPSSGAPPPSEG-NH2 [Example 383]" measured=530
